# System: human NaV subtype, like NaV 1.7 (Homo sapiens, UniProt Q15858)
# Sequence (Q15858 whole entry): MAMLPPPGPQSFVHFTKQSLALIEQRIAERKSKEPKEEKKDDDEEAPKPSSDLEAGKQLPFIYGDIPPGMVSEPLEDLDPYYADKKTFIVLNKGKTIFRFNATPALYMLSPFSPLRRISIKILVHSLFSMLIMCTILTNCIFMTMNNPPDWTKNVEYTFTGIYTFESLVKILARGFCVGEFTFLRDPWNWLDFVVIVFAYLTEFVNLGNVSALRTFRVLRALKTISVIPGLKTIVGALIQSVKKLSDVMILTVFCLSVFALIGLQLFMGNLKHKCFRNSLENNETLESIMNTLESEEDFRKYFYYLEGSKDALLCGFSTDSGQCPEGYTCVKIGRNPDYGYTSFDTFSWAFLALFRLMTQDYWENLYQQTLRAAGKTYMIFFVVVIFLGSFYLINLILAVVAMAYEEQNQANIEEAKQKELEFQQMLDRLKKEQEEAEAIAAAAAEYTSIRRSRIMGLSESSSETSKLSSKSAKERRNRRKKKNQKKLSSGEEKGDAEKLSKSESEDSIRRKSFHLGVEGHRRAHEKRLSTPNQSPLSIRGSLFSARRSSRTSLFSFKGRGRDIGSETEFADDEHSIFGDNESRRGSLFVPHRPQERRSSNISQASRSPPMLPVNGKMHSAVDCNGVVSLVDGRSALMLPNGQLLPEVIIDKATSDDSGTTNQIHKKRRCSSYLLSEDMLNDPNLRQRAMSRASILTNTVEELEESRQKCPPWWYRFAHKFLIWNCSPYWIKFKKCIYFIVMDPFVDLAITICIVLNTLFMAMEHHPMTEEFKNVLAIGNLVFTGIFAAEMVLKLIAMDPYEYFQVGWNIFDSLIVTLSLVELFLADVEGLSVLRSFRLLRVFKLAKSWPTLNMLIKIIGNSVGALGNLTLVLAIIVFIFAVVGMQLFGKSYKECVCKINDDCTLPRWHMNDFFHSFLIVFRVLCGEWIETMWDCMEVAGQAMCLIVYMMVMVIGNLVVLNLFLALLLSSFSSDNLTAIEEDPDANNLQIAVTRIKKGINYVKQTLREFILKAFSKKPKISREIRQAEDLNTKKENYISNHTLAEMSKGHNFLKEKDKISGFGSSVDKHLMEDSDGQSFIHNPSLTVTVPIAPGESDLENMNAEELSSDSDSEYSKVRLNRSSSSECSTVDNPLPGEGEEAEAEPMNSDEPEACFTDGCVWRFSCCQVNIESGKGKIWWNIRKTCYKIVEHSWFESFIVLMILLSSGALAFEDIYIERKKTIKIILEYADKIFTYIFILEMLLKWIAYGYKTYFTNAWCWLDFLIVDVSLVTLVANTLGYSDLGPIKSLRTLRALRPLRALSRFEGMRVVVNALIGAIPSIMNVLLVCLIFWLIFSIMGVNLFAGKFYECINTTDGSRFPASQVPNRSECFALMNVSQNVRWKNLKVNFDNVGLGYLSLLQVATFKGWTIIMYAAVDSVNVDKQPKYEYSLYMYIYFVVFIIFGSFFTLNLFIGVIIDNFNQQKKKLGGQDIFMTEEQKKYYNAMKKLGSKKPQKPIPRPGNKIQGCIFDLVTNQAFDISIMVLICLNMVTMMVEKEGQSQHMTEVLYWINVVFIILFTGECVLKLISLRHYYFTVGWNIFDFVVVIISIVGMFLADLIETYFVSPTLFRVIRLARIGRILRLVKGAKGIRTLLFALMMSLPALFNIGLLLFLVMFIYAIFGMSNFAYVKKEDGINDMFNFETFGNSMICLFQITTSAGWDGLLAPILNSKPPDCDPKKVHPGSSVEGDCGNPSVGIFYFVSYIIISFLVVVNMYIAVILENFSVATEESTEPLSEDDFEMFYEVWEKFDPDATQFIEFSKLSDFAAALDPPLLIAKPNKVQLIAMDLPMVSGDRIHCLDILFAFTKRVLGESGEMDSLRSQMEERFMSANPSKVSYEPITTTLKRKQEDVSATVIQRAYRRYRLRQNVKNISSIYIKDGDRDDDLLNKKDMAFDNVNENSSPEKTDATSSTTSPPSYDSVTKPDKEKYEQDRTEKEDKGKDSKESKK
# Test Name: E-VIPR optical membrane potential assay with electrical stimulation
# Assay type: cell-based
# Condition: active against one or more sodium channels; assay and NaV subtype not specified for Table 3; read-out: IC50 Binned Activity Data
Assay Endpoint: IC50

IC50 reading for COCC1CN(CC(=O)OC)CC2(CCN(C(=O)c3ccc(OC(C)C)c(C)c3)CC2)O1 (stereo not shown) [Compound 215] : 2000 to 5000 nM

Form: compound = CCC1CN(CC(=O)C(C)(C)C)CC2(CCN(C(=O)c3ccc(OC(C)C)c(C)c3)CC2)O1 (stereo not shown) [Compound 262] ; IC50 = < 2000 nM

The reported value for COCC1CN(c2ncccn2)CC2(CCN(C(=O)c3ccc(OC(C)C)c(C)c3)CC2)O1 (stereo not shown) [Compound 120] in terms of IC50 is < 2000 nM

Lookup result for COCC1CN(C2CCC(C)CC2)CC2(CCN(C(=O)c3ccc(OC(C)C)c(C)c3)CC2)O1 (stereo not shown) [Compound 5] ; measured IC50: < 2000 nM

Entry under test: COCC1CN(c2cccc(C)n2)CC2(CCN(C(=O)c3ccc(OC(C)C)c(C)c3)CC2)O1 (stereo not shown) [Compound 16] . Its IC50 was < 2000 nM

Reported IC50 ( Cc1cc(C(=O)N2CCC3(CC2)CN(CC(F)F)CC(c2ccc(Cl)cc2)O3)ccc1OC(C)C (stereo not shown) [Compound 122] ) = > 5000 nM

Record CCC(=O)N1CC(c2ccccc2)OC2(CCN(C(=O)c3ccc(OC(C)C)c(C)c3)CC2)C1 (stereo not shown) [Compound 266] . Reported IC50: 2000 to 5000 nM

Form: compound = CC(C)Oc1ccc(C(=O)N2CCC3(CC2)CN(CC(F)F)CC(c2ccccn2)O3)cc1Cl (stereo not shown) [Compound 222] ; IC50 = < 2000 nM

Entry under test: CC(C)CS(=O)(=O)c1ccc(C(=O)N2CCC3(CC2)CN(CC(F)F)CC(c2ccc(F)cc2)O3)cc1 (stereo not shown) [Compound 109] . Its IC50 was 2000 to 5000 nM

Reported IC50 for CC(C)Oc1ccc(C(=O)N2CCC3(CC2)CN(CC(F)F)CC(c2ncco2)O3)cc1F (stereo not shown) [Compound 243] was < 2000 nM

The compound listed as CCN1CC(c2ccccc2)OC2(CCN(C(=O)c3ccc(OC(C)C)c(F)c3)CC2)C1 (stereo not shown) [Compound 227] has a reported IC50 of < 2000 nM

What the record says about CCC(CC)N1CC(COC)OC2(CCN(C(=O)c3ccc(OC(C)C)c(C)c3)CC2)C1 (stereo not shown) [Compound 48] : IC50 is < 2000 nM

Noted for CC#CCN1CC(CC)OC2(CCN(C(=O)c3ccc(OCCC)c(C)c3)CC2)C1 (stereo not shown) [Compound 217] : its IC50 reads < 2000 nM

For CC(C)Oc1ccc(C(=O)N2CCC3(CC2)CN(CC(F)(F)F)CC(c2ccccc2)O3)nc1 (stereo not shown) [Compound 177] the compound record lists IC50 as < 2000 nM

IC50 reported for this compound COCN1CC(c2cccc(OC)n2)OC2(CCN(C(=O)c3ccc(OC(C)C)c(C)c3)CC2)C1 (stereo not shown) [Compound 256] : < 2000 nM

Record CCC1CN(Cc2ccccc2)CC2(CCN(C(=O)c3ccc(OC(C)C)c(C)c3)CC2)O1 (stereo not shown) [Compound 142] , field IC50: > 5000 nM

Lab book: IC50 of COCC1CN(C2CCCC2)CC2(CCN(C(=O)c3ccc(OC(C)C)c(C)c3)CC2)O1 (stereo not shown) [Compound 302] noted as < 2000 nM

Query COCN1CC(c2ncccn2)OC2(CCN(C(=O)c3ccc(C4(O)CCC4)cc3)CC2)C1 (stereo not shown) [Compound 264] yields IC50 of > 5000 nM

Given item Cc1nc(C(=O)N2CCC3(CC2)CN(CC(F)(F)F)CC(c2ccccc2)O3)ccc1OC(C)C (stereo not shown) [Compound 42] , the value recorded as its IC50 is < 2000 nM

The reported value for CCn1nccc1C1CN(CC(F)F)CC2(CCN(C(=O)c3ccc(OC(C)C)c(C)c3)CC2)O1 (stereo not shown) [Compound 20] in terms of IC50 is < 2000 nM

compound COCC1CN(Cc2cocn2)CC2(CCN(C(=O)c3ccc(OC(C)C)c(C)c3)CC2)O1 (stereo not shown) [Compound 64] , IC50 observed: > 5000 nM

Record summary for Cc1cc(C2CN(CC(F)(F)F)CC3(CCN(C(=O)c4ccc(OC(C)C)c(C)c4)CC3)O2)n[nH]1 (stereo not shown) [Compound 26] : reported IC50 = 2000 to 5000 nM

In plain terms, CCn1ccc(C2CN(CC(F)F)CC3(CCN(C(=O)c4ccc(OC(C)C)c(C)c4)CC3)O2)n1 (stereo not shown) [Compound 229] has a documented IC50 of 2000 to 5000 nM

Item: CCC1CN(CC)CC2(CCN(C(=O)c3ccc(OC(C)C)c(C)c3)CC2)O1 (stereo not shown) [Compound 34] | IC50: > 5000 nM

Sure, the documented IC50 for O=C(c1ccccc1OC(F)F)N1CCC2(CC1)CN(CC(F)(F)F)CC(c1ccccc1)O2 (stereo not shown) [Compound 90] is > 5000 nM

The recorded IC50 for COCC1CN(c2ccccn2)CC2(CCN(C(=O)c3ccc(OC(C)C)c(C)c3)CC2)O1 (stereo not shown) [Compound 140] is < 2000 nM

Entry Cc1nc2cccc(C(=O)N3CCC4(CC3)CN(CC(F)(F)F)CC(c3ccccc3)O4)c2o1 (stereo not shown) [Compound 116] , IC50 reported as < 2000 nM

get_value(item= Cc1nc(C(=O)N2CCC3(CC2)CN(CC(F)(F)F)CC(c2ccccc2)O3)ccc1C#N (stereo not shown) [Compound 106] , readout=IC50) returns > 5000 nM

Consider O=C(c1ccc(S(=O)(=O)NC2CC2)cc1)N1CCC2(CC1)CN(CC(F)(F)F)CC(c1ccccc1)O2 (stereo not shown) [Compound 99] . Its measured IC50 is < 2000 nM

Just so you know, measured IC50 for CC(C)(O)COc1ccc(C(=O)N2CCC3(CC2)CN(CC(F)(F)F)CC(c2ccccc2)O3)cc1 (stereo not shown) [Compound 273] came out at 2000 to 5000 nM

Form field IC50, entry COCC1CN(CC2CCC2)CC2(CCN(C(=O)c3ccc(OC(C)C)c(C)c3)CC2)O1 (stereo not shown) [Compound 47] : < 2000 nM

====

Kindly supply the reported IC50 values for the records listed here.
# System: human NaV subtype, like NaV 1.7 (Homo sapiens)
# Test Name: E-VIPR optical membrane potential assay with electrical stimulation
# Assay type: cell-based
# Condition: active against one or more sodium channels; assay and NaV subtype not specified for Table 3; read-out: IC50 Binned Activity Data

Reported IC50 of CCOc1cc(C(=O)N2CCC3(CC2)CN(CC)CC(c2ccccc2)O3)ccc1CO (stereo not shown) : 2 to 5 µM

# IC50 (compound: COCC1CN(c2ncccn2)CC2(CCN(C(=O)c3ccc(OC(C)C)c(OC)c3)CC2)O1 (stereo not shown) ) is 2 to 5 µM

IC50 reported for this compound COCC1CN(c2ncccn2)CC2(CCN(C(=O)c3ccc(OC(C)C)c(CO)c3)CC2)O1 (stereo not shown) : > 5 µM

Query COC(C)(C)COc1ccc(C(=O)N2CCC3(CC2)CN(CC(F)(F)F)CC(c2ccccc2)O3)cc1 (stereo not shown) yields IC50 of < 2 µM

====

# System: human NaV subtype, like NaV 1.7 (Homo sapiens)
# Test Name: E-VIPR optical membrane potential assay with electrical stimulation
# Assay type: cell-based
# Condition: active against one or more sodium channels; assay and NaV subtype not specified for Table 3; read-out: IC50 Binned Activity Data
Record form. Attribute: IC50. Fill in for each entry.

// IC50 lookup, molecule = CC(C)Oc1ccc(C(=O)N2CCC3(CC2)CN(CC(F)F)CC(c2ccccc2)O3)cc1Cl (centres unmarked) , result: < 2 µM

# IC50 (molecule: Cc1cc(C(=O)N2CCC3(CC2)CN(CC(F)F)CC(c2ccccn2)O3)ccc1OCCCO (centres unmarked) ) is 2 to 5 µM

# IC50 of COCC1CN(CC#N)CC2(CCN(C(=O)c3ccc(OC(C)C)c(C)c3)CC2)O1 (centres unmarked) = > 5 µM

Recorded result, COc1cc(C(=O)N2CCC3(CC2)CN(CC(F)F)CC(c2ccc(F)cc2)O3)ccc1OC(C)C (centres unmarked) , IC50: < 2 µM

// IC50 value for Cc1ccc(C2CN(CC(F)F)CC3(CCN(C(=O)c4ccc(OC(C)C)c(C)c4)CC3)O2)cc1 (centres unmarked) : 2 to 5 µM

Entry COCC1CN(C2CCC(C(C)C)CC2)CC2(CCN(C(=O)c3ccc(OC(C)C)c(C)c3)CC2)O1 (centres unmarked) , IC50 reported as < 2 µM

// IC50 value for COCC1CN(c2ncccn2)CC2(CCN(C(=O)c3ccc(C4(O)CCCC4)cc3)CC2)O1 (centres unmarked) : < 2 µM

Sample COCC1CN(C2CCSCC2)CC2(CCN(C(=O)c3ccc(OC(C)C)c(C)c3)CC2)O1 (centres unmarked) ; IC50 observed: < 2 µM
